- SYSTEM_UNDER_TEST: Glucagon receptor (Homo sapiens)
- Sequence (P47871 whole entry): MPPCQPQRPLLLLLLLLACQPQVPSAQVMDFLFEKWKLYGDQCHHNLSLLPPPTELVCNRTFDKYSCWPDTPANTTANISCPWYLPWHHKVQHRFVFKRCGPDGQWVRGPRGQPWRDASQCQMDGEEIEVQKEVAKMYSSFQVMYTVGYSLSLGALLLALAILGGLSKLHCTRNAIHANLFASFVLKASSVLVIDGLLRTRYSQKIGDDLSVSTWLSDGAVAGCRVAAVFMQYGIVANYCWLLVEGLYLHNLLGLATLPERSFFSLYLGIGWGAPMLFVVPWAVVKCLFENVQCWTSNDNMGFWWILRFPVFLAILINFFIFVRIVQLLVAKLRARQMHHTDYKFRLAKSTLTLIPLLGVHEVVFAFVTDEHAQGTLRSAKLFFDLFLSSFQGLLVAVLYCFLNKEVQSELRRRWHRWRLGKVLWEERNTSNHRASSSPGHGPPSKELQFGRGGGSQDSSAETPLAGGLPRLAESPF
- EXPERIMENT_NOTES: Displacement of [125I]glucagon from human glucagon receptor expressed in CHO cell membranes
OBSERVABLE: IC50

| COMPOUND | SYSTEM_UNDER_TEST | RESULT |
| --- | --- | --- |
| COc1ccc(C(F)(F)F)cc1-c1nn(Cc2ccc(C(=O)NCCC(=O)O)cc2)c2cc(-c3ccc(C)cc3)ccc12 | Glucagon receptor (Homo sapiens) | 39 nM |
| CCCC(c1ccc(C(=O)NCCC(=O)O)cc1)n1nc(-c2cc(C(F)(F)F)ccc2OC)c2ccc(-c3ccc(OC)cc3)cc21 (configuration not stated) | Glucagon receptor (Homo sapiens) | 4 nM |
| CC(c1ccc(C(=O)NCCC(=O)O)cc1)n1nc(-c2ccc(C(=O)N(C)C)cc2)c2ccc(-c3ccc(OC(F)(F)F)cc3)cc21 (configuration not stated) | Glucagon receptor (Homo sapiens) | 40 nM |
| CC(c1ccc(C(=O)NCCC(=O)O)cc1)n1nc(-c2ccc(Cl)cc2Cl)c2ccc(-c3ccc(OC(F)(F)F)cc3)cc21 (configuration not stated) | Glucagon receptor (Homo sapiens) | 8 nM |
| CCCC(c1ccc(C(=O)NCCC(=O)O)cc1)n1cc(-c2cc(C(F)(F)F)ccc2OC)c2ccc(-c3ccc(C)cc3)cc21 (racemic) | Glucagon receptor (Homo sapiens) | 4 nM |
| CCCCC(c1ccc(C(=O)NCCC(=O)O)cc1)n1nc(-c2cc(C(F)(F)F)ccc2OC)c2ccc(-c3ccc(C)cc3)cc21 (configuration not stated) | Glucagon receptor (Homo sapiens) | 2.6 nM |
| CC(c1ccc(C(=O)NCCC(=O)O)cc1)n1nc(-c2cc(Cl)ccc2C(N)=O)c2ccc(-c3ccc(OC(F)(F)F)cc3)cc21 (configuration not stated) | Glucagon receptor (Homo sapiens) | 2 nM |

----------
- EXPERIMENT_NOTES: Drug level in glucagon-induced glucose excursion in glucagon receptor humanized mouse model of acute glucagon challenge model at 1 mg/kg, po dosed 1 hr before glucagon challenge and measured after 60 mins post dose
- Format: ADME, organism-based
- CONDITIONS: in vivo, read-out: Drug uptake

| MOLECULE | concentration at 1 h |
| --- | --- |
| COc1ccc(C(F)(F)F)cc1-c1nn(C(C)c2ccc(C(=O)NCCC(=O)O)cc2)c2cc(-c3ccc(C)cc3)ccc12 (stereo unspecified) | 180 nM |

----------
- EXPERIMENT_NOTES: Volume of distribution at steady state in Wistar rat at 0.5 mg/kg, iv or 2 mg/kg, po
- Format: ADME, organism-based
- CONDITIONS: in vivo, read-out: Vdss
OBSERVABLE: Vd (L/kg)

| COMPOUND | UNITS_TEXT | RECORDED_NUMBER |
| --- | --- | --- |
| CCCCC(c1ccc(C(=O)NCCC(=O)O)cc1)n1nc(-c2cc(C(F)(F)F)ccc2OC)c2ccc(-c3ccc(OC)cc3)cc21 (stereo not given) | L/kg | 0.67 |
| CCCCC(c1ccc(C(=O)NCCC(=O)O)cc1)n1nc(-c2cc(C(F)(F)F)ccc2OC)c2ccc(-c3ccc(C)cc3)cc21 (stereo not given) | L/kg | 1 |
| CCCC(c1ccc(C(=O)NCCC(=O)O)cc1)n1nc(-c2cc(C(F)(F)F)ccc2OC)c2ccc(-c3ccc(OC(F)(F)F)cc3)cc21 (stereo not given) | L/kg | 1.3 |
| COc1ccc(C(F)(F)F)cc1-c1nn(C(C)c2ccc(C(=O)NCCC(=O)O)cc2)c2cc(-c3ccc(C)cc3)ccc12 (stereo not given) | L/kg | 0.65 |
| CCCCC(c1ccc(C(=O)NCCC(=O)O)cc1)n1nc(-c2cc(C(F)(F)F)ccc2OC)c2ccc(-c3ccc(OC(F)(F)F)cc3)cc21 (stereo not given) | L/kg | 0.72 |

----------
- SYSTEM_UNDER_TEST: Glucagon receptor (Homo sapiens)
- EXPERIMENT_NOTES: Displacement of [125I]glucagon from human glucagon receptor expressed in CHO cell membranes
pIC50: −log10 of the molar value.

| COMPOUND | SYSTEM_UNDER_TEST | pIC50 |
| --- | --- | --- |
| CC(c1ccc(C(=O)NCCC(=O)O)cc1)n1nc(-c2cc(F)ccc2Cl)c2ccc(-c3ccc(OC(F)(F)F)cc3)cc21 (configuration not stated) | Glucagon receptor (Homo sapiens) | 8.00 |
| CC(c1ccc(C(=O)NCCC(=O)O)cc1)n1nc(-c2cc(C(F)(F)F)ccc2F)c2ccc(-c3ccc(OC(F)(F)F)cc3)cc21 (configuration not stated) | Glucagon receptor (Homo sapiens) | 8.30 |
| CCCC(c1ccc(C(=O)NCCC(=O)O)cc1)n1nc(-c2cc(C(F)(F)F)ccc2OC)c2cccc(-c3ccc(C)cc3)c21 (configuration not stated) | Glucagon receptor (Homo sapiens) | 6.11 |
| CCCCC(c1ccc(C(=O)NCCC(=O)O)cc1)n1nc(-c2cc(C(F)(F)F)ccc2OC)c2ccc(-c3ccc(OC(F)(F)F)cc3)cc21 (configuration not stated) | Glucagon receptor (Homo sapiens) | 9.10 |
| CCCCC(c1ccc(C(=O)NCCC(=O)O)cc1)n1nc(-c2cc(C(F)(F)F)ccc2OC)c2ccc(-c3ccc(OC)cc3Cl)cc21 (configuration not stated) | Glucagon receptor (Homo sapiens) | 8.40 |
| CCCCC(c1ccc(C(=O)NCCC(=O)O)cc1)n1nc(-c2cc(C(F)(F)F)ccc2OC)c2ccc(-c3ccc(C(F)(F)F)cc3)cc21 (configuration not stated) | Glucagon receptor (Homo sapiens) | 8.80 |
| COc1ccc(C(F)(F)F)cc1-c1nn(C(C)c2ccc(C(=O)NCCC(=O)O)cc2)c2cc(-c3ccc(C)cc3)ccc12 (configuration not stated) | Glucagon receptor (Homo sapiens) | 8.59 |
